target: Cytochrome P450 3A4 (Homo sapiens, UniProt P08684)
Sequence (P08684 whole entry): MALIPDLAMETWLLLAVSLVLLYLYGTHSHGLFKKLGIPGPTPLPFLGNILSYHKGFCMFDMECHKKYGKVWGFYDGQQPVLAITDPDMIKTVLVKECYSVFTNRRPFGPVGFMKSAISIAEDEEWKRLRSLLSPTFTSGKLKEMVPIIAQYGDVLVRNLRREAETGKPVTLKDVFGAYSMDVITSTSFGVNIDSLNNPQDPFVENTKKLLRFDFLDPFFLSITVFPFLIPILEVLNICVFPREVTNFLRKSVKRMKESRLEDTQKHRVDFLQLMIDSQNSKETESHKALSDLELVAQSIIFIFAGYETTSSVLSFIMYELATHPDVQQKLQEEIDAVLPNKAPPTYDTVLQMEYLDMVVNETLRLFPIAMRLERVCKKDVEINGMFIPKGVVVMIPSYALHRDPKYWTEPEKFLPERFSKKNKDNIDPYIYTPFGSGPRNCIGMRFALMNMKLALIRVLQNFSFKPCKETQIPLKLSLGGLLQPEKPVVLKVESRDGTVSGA
assay-details: Mechanism based inhibition of human cytochrome P450 3A4 measured by testosterone hydroxylation
Assay type: ADME
measured-endpoint: Ki (nM)
One number for each entry, in nM.

Record request: Ki value, item CC(C)CN(C[C@@H](O)[C@H](Cc1ccccc1)NC(=O)O[C@H]1CCOC1)S(=O)(=O)c1ccc(N)cc1
260

---

I'd appreciate it if you could supply Ki values for the items below.
target: Cytochrome P450 2D6 (Homo sapiens, UniProt P10635)
Sequence (P10635 whole entry): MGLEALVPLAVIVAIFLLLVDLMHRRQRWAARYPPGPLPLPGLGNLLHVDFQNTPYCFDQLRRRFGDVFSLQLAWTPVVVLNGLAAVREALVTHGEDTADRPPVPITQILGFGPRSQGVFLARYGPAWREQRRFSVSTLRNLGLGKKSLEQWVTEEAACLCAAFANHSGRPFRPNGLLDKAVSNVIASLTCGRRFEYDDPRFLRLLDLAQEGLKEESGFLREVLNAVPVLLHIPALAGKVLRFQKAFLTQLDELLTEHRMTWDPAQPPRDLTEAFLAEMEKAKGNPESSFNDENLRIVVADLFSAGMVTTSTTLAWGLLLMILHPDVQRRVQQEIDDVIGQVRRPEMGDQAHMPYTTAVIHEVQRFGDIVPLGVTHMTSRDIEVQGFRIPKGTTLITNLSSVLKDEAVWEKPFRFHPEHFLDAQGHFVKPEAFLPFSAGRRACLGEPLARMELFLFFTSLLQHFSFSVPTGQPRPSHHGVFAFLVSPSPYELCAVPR
assay-details: Mechanism based inhibition of human cytochrome P450 2D6 measured by dextromethorphan O-demethylation
Format: ADME

* CCc1nc(C)c(CN2CCN(c3cc(C(F)(F)F)ccn3)CC2)[nH]1 | 5.5 µM

Record request: Ki value, item CCN(CC)CCNC(=O)c1cc(Cl)c(N)cc1OC [METOCLOPRAMIDE]
0.96 µM
